# TEST_DETAILS: Cytotoxicity against African green monkey Vero cells
# Type: toxicity, cell-based
# TEST_SETTINGS: chlorocebus sabaeus
MEASURE_NAME: CC50 (µM)
// units = µM; emit number, no label

The recorded CC50 for `CC1(C)[C@@H](O)CC[C@]2(C)[C@H]3C(=O)C=C4[C@@H]5C[C@@](C)(C(=O)OCc6cn(-c7ccc([N+](=O)[O-])cc7)nn6)CC[C@]5(C)CC[C@@]4(C)[C@]3(C)CC[C@@H]12` is 175

For `CC(=O)c1ccc(-n2cc(COC(=O)[C@@]3(C)CC[C@]4(C)CC[C@]5(C)C(=CC(=O)[C@@H]6[C@@]7(C)CC[C@H](O)C(C)(C)[C@@H]7CC[C@]65C)[C@@H]4C3)nn2)cc1` the compound record lists CC50 as 226

The measured CC50 associated with `CC1(C)[C@@H](O)CC[C@]2(C)[C@H]3C(=O)C=C4[C@@H]5C[C@@](C)(C(=O)OCc6cn(-c7ccc(C#N)cc7)nn6)CC[C@]5(C)CC[C@@]4(C)[C@]3(C)CC[C@@H]12` reads 190

compound `CC1(C)[C@@H](O)CC[C@]2(C)[C@H]3C(=O)C=C4[C@@H]5C[C@@](C)(C(=O)OCc6cn(-c7ccc(F)cc7)nn6)CC[C@]5(C)CC[C@@]4(C)[C@]3(C)CC[C@@H]12` , CC50 observed: 226

The compound `CC(=O)c1cccc(-n2cc(COC(=O)[C@@]3(C)CC[C@]4(C)CC[C@]5(C)C(=CC(=O)[C@@H]6[C@@]7(C)CC[C@H](O)C(C)(C)[C@@H]7CC[C@]65C)[C@@H]4C3)nn2)c1` showed CC50 equal to 213

====

Would you mind telling me the reported EC50 of each entry?
# Test system: Plasmodium falciparum
# TEST_DETAILS: Antimalarial activity against Plasmodium falciparum 3D7 infected in A+ human erythrocytes assessed as reduction in parasite growth incubated for 72 hrs by SYBR Green I staining based analysis
# Type: functional, organism-based
# TEST_SETTINGS: 3D7, Erythrocyte
Only the number, expressed in nM, is required.

EC50 recorded for this compound, `C[C@H]1[C@@H](OCc2cn(-c3ccnc4cc(Cl)ccc34)nn2)O[C@@H]2O[C@@]3(C)CC[C@H]4[C@H](C)CC[C@@H]1[C@@]24OO3` , is 9

Record `C[C@H]1[C@H](OCc2cn(-c3ccnc4cc(Cl)ccc34)nn2)O[C@@H]2O[C@@]3(C)CC[C@H]4[C@H](C)CC[C@@H]1[C@@]24OO3` . Reported EC50: 27.5

// recorded EC50 for `C[C@H]1[C@@H](OCCCCc2cn(-c3ccnc4cc(Cl)ccc34)nn2)O[C@@H]2O[C@@]3(C)CC[C@H]4[C@H](C)CC[C@@H]1[C@@]24OO3` : 8.4

The compound listed as `Cc1nc(-c2ccccc2)c(-c2ccccc2)c2cc(-c3cn(CCOC(=O)CCC(=O)O[C@@H]4O[C@@H]5O[C@]6(C)O[C@]57[C@@H](CC[C@@H](C)[C@@H]7C[C@H]6O)[C@H]4C)nn3)ccc12` shows EC50 equal to 646

Just so you know, measured EC50 for `C[C@H]1[C@@H](OCCc2cn(-c3ccnc4cc(Cl)ccc34)nn2)O[C@@H]2O[C@@]3(C)CC[C@H]4[C@H](C)CC[C@@H]1[C@@]24OO3` came out at 8.8

According to the records, this compound `C[C@H]1[C@H](OC(=O)CCC(=O)OCCc2cn(-c3ccnc4cc(Cl)ccc34)nn2)O[C@@H]2O[C@@]3(C)CC[C@H]4[C@H](C)CC[C@@H]1[C@@]24OO3` displays EC50 of 8
